// note: pIC50 values for Proto-oncogene tyrosine-protein kinase Src (Gallus gallus, UniProt P00523) were reported in different studies
# pIC50 is unitless: minus log10 of the molar concentration; print number only

## Input Request body: readout pIC50, system Proto-oncogene tyrosine-protein kinase Src (Gallus gallus, UniProt P00523), query `Cn1c(=O)c(-c2c(Cl)cccc2Cl)cc2cnc(Nc3ccc(CC(=O)O)cc3)nc21` . Return the value.
## Output 8.00

## Input Request body: readout pIC50, system Proto-oncogene tyrosine-protein kinase Src (Gallus gallus, UniProt P00523), query `CN1CCN(c2ccc3nc(-c4c(N)c5c(F)cccc5[nH]c4=O)[nH]c3c2)CC1` . Return the value.
## Output 7.09

## Input Request body: readout pIC50, system Proto-oncogene tyrosine-protein kinase Src (Gallus gallus, UniProt P00523), query `CCN(CC)CCCCNc1ncc2cc(-c3c(Cl)cccc3Cl)c(NC(=S)NCCCN3CCOCC3)nc2n1` . Return the value.
## Output 7.66

## Input Request body: readout pIC50, system Proto-oncogene tyrosine-protein kinase Src (Gallus gallus, UniProt P00523), query `Cn1c(=O)c(-c2c(Cl)cccc2Cl)cc2cnc(Nc3ccc(OCCN)cc3)nc21` . Return the value.
## Output 7.89

## Input Request body: readout pIC50, system Proto-oncogene tyrosine-protein kinase Src (Gallus gallus, UniProt P00523), query `CN(C)CCNC(=O)Nc1nc2nc(NCCCN3CCN(C)CC3)ncc2cc1-c1c(Cl)cccc1Cl` . Return the value.
## Output 7.70

## Input Request body: readout pIC50, system Proto-oncogene tyrosine-protein kinase Src (Gallus gallus, UniProt P00523), query `CCC(=O)Nc1ccc2ncnc(Nc3ccc(NC(=O)Nc4cc(C(C)(C)C)nn4-c4cccc(N)c4)cc3)c2c1` . Return the value.
## Output 8.92

## Input Request body: readout pIC50, system Proto-oncogene tyrosine-protein kinase Src (Gallus gallus, UniProt P00523), query `Cn1c(=O)c(-c2c(Cl)cccc2Cl)cc2cnc(NCc3ccccn3)nc21` . Return the value.
## Output 6.09

## Input Request body: readout pIC50, system Proto-oncogene tyrosine-protein kinase Src (Gallus gallus, UniProt P00523), query `CCN(CC)CCCCNc1cc2nc(N)c(-c3c(Cl)cccc3Cl)cc2cn1` . Return the value.
## Output 7.38

## Input Request body: readout pIC50, system Proto-oncogene tyrosine-protein kinase Src (Gallus gallus, UniProt P00523), query `CC/N=C(\N)Nc1nc2nc(NCCCN(CC)CC)ncc2cc1-c1c(Cl)cccc1Cl` . Return the value.
## Output 5.85

## Input Request body: readout pIC50, system Proto-oncogene tyrosine-protein kinase Src (Gallus gallus, UniProt P00523), query `CN(C)CCOc1ccc(Nc2ncc3cc(-c4c(Cl)cccc4Cl)c(=O)n(C)c3n2)cc1` . Return the value.
## Output 8.05

## Input Request body: readout pIC50, system Proto-oncogene tyrosine-protein kinase Src (Gallus gallus, UniProt P00523), query `CCN(CC)CCCNc1ncc2cc(-c3c(C)cccc3C)c(N)nc2n1` . Return the value.
## Output 6.35

## Input Request body: readout pIC50, system Proto-oncogene tyrosine-protein kinase Src (Gallus gallus, UniProt P00523), query `CN1CCN(CCCCNc2ncc3cc(-c4c(Cl)cccc4Cl)c(NC(=O)NC(C)(C)C)nc3n2)CC1` . Return the value.
## Output 8.00

## Input Request body: readout pIC50, system Proto-oncogene tyrosine-protein kinase Src (Gallus gallus, UniProt P00523), query `CCN(CC)CCCCCNc1cc2nc(NC(=O)NC(C)(C)C)c(-c3cc(OC)cc(OC)c3)cc2cn1` . Return the value.
## Output 5.44
